Data provenance: PubChem BioAssay AID720543

TARGET UNDER TEST: (Lyso)-N-acylphosphatidylethanolamine lipase (Mus musculus)
ASSAY NOTES: ABHD4 inhibitors, primary screen, biochemical, fluorescence polarization, mouse (AID 720543);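 further: 0% = plate median of compound wells and 100% = S159A mutant with DMSO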
MEASUREMENT SETUP: purified mABHD4, FP-Rh probe fluorescence polarization; at 8.92 µM; active compounds read high
About 2,000 (0.54%) of roughly 370,000 compounds were called active. Shown is part of a subset that was picked to be rich in actives.
MEASUREMENT KIND: inhibition (%)
Dear colleague, please return just the value in %, with no unit written.

Examples with their reported inhibition follow.
| MOLECULE | OBSERVED VALUE |
| --- | --- |
| C/C=C/CC1(CC)C(=O)NC(=S)NC1=O | 5.1 |
| CCOc1cccc(=NC2CCCCC2)c2c(C)[nH]c(C)c12 | 34.4 |

Task: Given c1ccc(C2NCc3ccccc3-n3cccc32)cc1 (stereo unspecified) , report its inhibition on (Lyso)-N-acylphosphatidylethanolamine lipase (Mus musculus).
Output: 6.15

Task: Report its inhibition with (Lyso)-N-acylphosphatidylethanolamine lipase (Mus musculus) as the test system: `COc1cc(-n2c(=S)[nH]c3ccc(C)cc3c2=O)c(Cl)cc1Cl`
Output: 36.9

Task: State the measured inhibition ((Lyso)-N-acylphosphatidylethanolamine lipase (Mus musculus)) of `CCOc1ccc(-c2cc(C)[n+](CCN(CC)CC)c(-c3ccc(OCC)cc3)c2)cc1`
Output: 5.92

Task: Give inhibition only, for `COc1ccc(NC(=O)N2CCC3(CC2)OCCO3)c(OC)c1` , using (Lyso)-N-acylphosphatidylethanolamine lipase (Mus musculus) data.
Output: 2.18
